Some compounds, each annotated with its measured pIC50.
targetOfAssay: recombinant human MMP-1 (Homo sapiens, UniProt P03956)
Construct: made in house; host or cells: transfected HT-1080 cells (provided by Dr. Harold Welgus, Washington University)
Sequence (P03956 100-469): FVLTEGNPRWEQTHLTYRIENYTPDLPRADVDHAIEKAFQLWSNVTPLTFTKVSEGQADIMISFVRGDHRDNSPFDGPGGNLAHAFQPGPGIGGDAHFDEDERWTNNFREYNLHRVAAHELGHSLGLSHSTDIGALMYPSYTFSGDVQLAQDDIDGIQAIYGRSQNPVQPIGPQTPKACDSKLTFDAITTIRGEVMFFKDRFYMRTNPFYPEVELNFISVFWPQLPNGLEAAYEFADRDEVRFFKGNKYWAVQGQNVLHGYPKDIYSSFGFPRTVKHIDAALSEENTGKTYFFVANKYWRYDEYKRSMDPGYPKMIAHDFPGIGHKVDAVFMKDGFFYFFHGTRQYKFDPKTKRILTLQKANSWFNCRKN
experimentalProtocol: biochemical
assayContext: Inhibition Table B; read-out: MMP-1 IC50
pIC50: −log10 of the molar value. Counter-ions that a name gives are not always drawn.

compound	pIC50
O=C(CS(=O)(=O)c1ccc(NC(=O)OCc2ccccc2)cc1)NO	< 5.00
C=CCN1CCC(C(=O)NO)(S(=O)(=O)c2ccc(Oc3ccc(Cl)c(C)c3)cc2)CC1 [Example 82, Monohydrochloride]	5.40
O=C(NO)C1(S(=O)(=O)c2ccc(Oc3cc(F)c(F)cc3F)cc2)CCOCC1	< 5.00
Cl.O=C(NO)C1(S(=O)(=O)c2ccc(Oc3ccc(-n4cncn4)cc3)cc2)CCS(=O)(=O)CC1 [Example 53, Monohydrochloride]	< 5.00
